Tested on: S. cerevisiae SK1 pCDA2-eGFP (USY613), sporulating;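 also: active if sensitivity score above 5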
Experiment: CDA2-GFP sporulation assay sensitivity score (z-score vs DMSO controls); higher = stronger inhibition of sporulation, active = hit call of the paper
Conditions: stock concentration (mM, diluted 1:100): 10
Below, each of the compounds is paired with its reported CDA2-GFP sporulation assay sensitivity score value.
Form: value (number only, do not type unit).

{"compound": "C=C1C[C@@H]2[C@H](CC[C@]3(C)C(=O)CC[C@@H]23)[C@@]2(C)C=CC(=O)C=C12", "observedMeasurement": 7.73}
{"compound": "CN1C(=O)CN=C(c2ccccc2)c2cc([N+](=O)[O-])ccc21", "observedMeasurement": -0.53}
{"compound": "C[C@]12CCC(=O)C=C1CC[C@@H]1[C@@H]2CC[C@@]2(C)[C@H]1CC[C@]2(C)O", "observedMeasurement": 3.87}
{"compound": "CNCC(O)c1ccc(O)cc1 (stereo unspecified) [Synephrine]", "observedMeasurement": 4.04}

Enquiry: Can you share its CDA2-GFP sporulation assay sensitivity score? I mean this compound: CCCCC/C=C\C/C=C\C/C=C\C/C=C\CCCC(=O)Nc1ccc(O)cc1
Return: -4.74

Enquiry: Can you share its CDA2-GFP sporulation assay sensitivity score? I mean this compound: C[N+]1(C)CCN(c2ccccc2)CC1 [Dimethylphenylpiperazinium Iodide]
Return: -0.6
